assay: inhibitors of Candida efflux pumps in yeast, primary screen, S. cerevisiae, Nile Red, multiplex (AID 485275);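 also: Nile Red retained in pooled yeast measured as flow cytometry median fluorescence; higher means more Nile Red kept so more efflux inhibition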; conditions: S. cerevisiae Candida pump triplex, at 10 µM
About 1,400 (0.42%) of roughly 330,000 compounds were called active.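 The calls were made as follows: active = plate passing quality check with inhibition over a set limit, or well fluorescence over plate mean plus 4 SD; inactive = the rest.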 Shown is part of a subset that was picked to be rich in actives.
Classes used: active, inactive

entry_smiles=Clc1ccc2nc3c(c(-c4ccccc4)c2c1)CNCC3 class=inactive
entry_smiles=CN(c1ccccc1)c1ccc([N+](=O)[O-])c2nonc12 class=inactive
entry_smiles=C/C(=N/O)c1ccc2ccc3ccccc3c2c1 class=inactive
entry_smiles=c1cc2c(cc1CCNC1CCCCCC1)OCO2 class=inactive
entry_smiles=Cc1ccc(-n2c(-c3ccc([N+](=O)[O-])cc3)nc3ccccc3c2=O)cc1 class=inactive
entry_smiles=O=[N+]([O-])c1cnc2ccc3ccccc3c2c1 class=active
entry_smiles=CCN(CC)c1ccc([N+](=O)[O-])c2cccnc12 class=active
entry_smiles=COC(=O)C1=C(c2ccc(Cl)c(C(F)(F)F)c2)C[C@@H]2CC[C@H]1N2C(=O)NC1CC1 class=inactive
